The reported measurements were obtained from patent US11136320B2.

Cmax listing for selected compounds.
- assay_remarks: PK analysis of rats
- Format: in vivo
- run_conditions: Sprague-Dawley (SD), rat, plasma, po, p.o. (10 mg/kg), read-out: Drug concentration in blood Cmax
Structures can show the parent of a compound that is named as a salt.
endpoint_label: Cmax (ng/mL)

>>> result_number("CCSCCNc1cc(NC(=O)N2CCCc3cc(CN4CCN(C)CC4=O)c(C=O)nc32)ncc1C#N [Compound 71, hydrochloride]")
657
>>> result_number("CSCCNc1cc(NC(=O)N2CCCc3cc(CN4CCN(C)CC4=O)c(C=O)nc32)ncc1C#N")
833

---

- assay_remarks: PK/PD of NOD-SCID mouse (drug concentration in blood and in tumors)
- Assay type: in vivo
- run_conditions: NOD-SCID, mouse, plasma, po, 50 mg/kg, p.o. (50 mg/kg), Hep3B model
The entries below come with measured Cmax values attached.
endpoint_label: Cmax (ng/mL)

>>> result_number("CSC[C@@H](C)Nc1cc(NC(=O)N2CCCc3cc(CN4CCN(C)CC4=O)c(C=O)nc32)ncc1C#N")
1020
>>> result_number("COCCNc1cc(NC(=O)N2CCCc3cc(CN4CCN(C)CC4=O)c(C=O)nc32)ncc1C#N [Reference compound, roblitinib, reference compound]")
6200

---

- subject_of_test: FGFR4 kinase (Homo sapiens (Human), UniProt P22455)
- Sequence (P22455 22-802): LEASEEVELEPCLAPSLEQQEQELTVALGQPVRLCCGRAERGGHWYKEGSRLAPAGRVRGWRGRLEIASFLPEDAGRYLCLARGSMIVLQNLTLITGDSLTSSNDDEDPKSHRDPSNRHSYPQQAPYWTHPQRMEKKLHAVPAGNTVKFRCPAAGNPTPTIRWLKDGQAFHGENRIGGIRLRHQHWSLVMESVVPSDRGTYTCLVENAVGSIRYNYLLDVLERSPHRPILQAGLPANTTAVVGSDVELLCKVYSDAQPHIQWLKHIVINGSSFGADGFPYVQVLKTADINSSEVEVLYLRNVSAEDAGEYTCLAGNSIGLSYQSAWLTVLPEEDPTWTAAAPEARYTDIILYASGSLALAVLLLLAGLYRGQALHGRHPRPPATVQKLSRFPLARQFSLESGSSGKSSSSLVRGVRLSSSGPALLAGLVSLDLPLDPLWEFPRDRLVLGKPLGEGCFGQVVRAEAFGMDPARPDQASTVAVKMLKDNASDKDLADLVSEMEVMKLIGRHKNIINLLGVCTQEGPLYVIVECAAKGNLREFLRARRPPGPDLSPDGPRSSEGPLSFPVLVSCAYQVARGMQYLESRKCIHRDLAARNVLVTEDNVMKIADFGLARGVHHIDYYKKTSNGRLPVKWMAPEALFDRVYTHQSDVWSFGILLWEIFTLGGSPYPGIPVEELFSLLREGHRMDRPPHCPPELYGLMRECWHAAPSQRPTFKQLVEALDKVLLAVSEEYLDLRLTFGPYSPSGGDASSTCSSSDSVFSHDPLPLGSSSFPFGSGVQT
pIC50: −log10 of the molar value.
# pIC50 per record follows
endpoint_label: pIC50

>>> result_number("CSC[C@@H](C)Nc1cc(NC(=O)N2CCCc3cc(CN4CCCC4=O)c(C=O)nc32)ncc1C#N")
8.82
>>> result_number("CN1CCN(Cc2cc3c(nc2C=O)N(C(=O)Nc2cc(NCC[S+](C)[O-])c(C#N)cn2)CCC3)C(=O)C1 (stereo not shown)")
8.62
>>> result_number("CSCCNc1cc(NC(=O)N2CCCc3cc(CN4CCN(C)CC4=O)c(C=O)nc32)ncc1C#N")
8.82
>>> result_number("CSCCNc1cc(NC(=O)N2CCCc3cc(CN(C)C(=O)C4CCOC4)c(C=O)nc32)ncc1C#N.Cl (stereo not shown) [Compound 76, hydrochloride]")
8.68
